system: SKMEL28; assay: Cell viability assay (Cell-Titer-Blue); format: cell-based, human; conditions: 72h; read-out: Calculated IC50
reportedMetric: IC50 (µM)
Number only, in µM; omit the unit.

Ask: Return reported IC50; argument: Cl.NCCCCCCNS(=O)(=O)c1cccc2c(Cl)cccc12 [W-7, W-7 hydrochloride]
Result: 29.3

====

test system: A375 cells; assay: Cell viability assay (Cell-Titer-Blue); assay type: cell-based, human; conditions: 72h; read-out: Calculated IC50
reportedMetric: pIC50
Reminder that pIC50 is minus the log10 of a molar concentration.

Ask: Fill in: pIC50 of Cl.NCCCCCCNS(=O)(=O)c1cccc2c(Cl)cccc12 [W-7, W-7 hydrochloride] is ___
Result: 4.66

====

tested on: HCC1806; assay: Cell viability assay (Cell-Titer-Blue); format: cell-based, human; details: 72h; read-out: Calculated IC50
reportedMetric: pIC50
pIC50 is a log-scale quantity: -log10 of the concentration expressed in molar.

Ask: Entry Cl.NCCCCCCNS(=O)(=O)c1cccc2c(Cl)cccc12 [W-7, W-7 hydrochloride] has what pIC50?
Result: 4.57

====

tested on: 786-O; test: Cell viability assay (Cell-Titer-Blue); assay type: cell-based, human; settings: 72h; read-out: Calculated IC50
reportedMetric: pIC50
Please treat pIC50 as minus the base-10 logarithm of the molar concentration.

Ask: Given the entry Cl.NCCCCCCNS(=O)(=O)c1cccc2c(Cl)cccc12 [W-7, W-7 hydrochloride] , what pIC50 was observed with 786-O?
Result: 4.47

====

system: A101D; test: Cell viability assay (Cell-Titer-Blue); format: cell-based, human; settings: 72h; read-out: Calculated IC50
reportedMetric: pIC50
In simple prose, pIC50 is minus the logarithm base ten of a concentration in moles per litre.

Ask: pIC50 for Cl.NCCCCCCNS(=O)(=O)c1cccc2c(Cl)cccc12 [W-7, W-7 hydrochloride] ?
Result: 4.57
